# TARGET OR TEST SYSTEM: T1, human TfR extracellular domain with N-terminal His tag (human, UniProt P02786 89-760)
# T1 construct: Biotinylated in some assays; also called huTfR; HuTfR
# T1 sequence (P02786 89-760 G142S): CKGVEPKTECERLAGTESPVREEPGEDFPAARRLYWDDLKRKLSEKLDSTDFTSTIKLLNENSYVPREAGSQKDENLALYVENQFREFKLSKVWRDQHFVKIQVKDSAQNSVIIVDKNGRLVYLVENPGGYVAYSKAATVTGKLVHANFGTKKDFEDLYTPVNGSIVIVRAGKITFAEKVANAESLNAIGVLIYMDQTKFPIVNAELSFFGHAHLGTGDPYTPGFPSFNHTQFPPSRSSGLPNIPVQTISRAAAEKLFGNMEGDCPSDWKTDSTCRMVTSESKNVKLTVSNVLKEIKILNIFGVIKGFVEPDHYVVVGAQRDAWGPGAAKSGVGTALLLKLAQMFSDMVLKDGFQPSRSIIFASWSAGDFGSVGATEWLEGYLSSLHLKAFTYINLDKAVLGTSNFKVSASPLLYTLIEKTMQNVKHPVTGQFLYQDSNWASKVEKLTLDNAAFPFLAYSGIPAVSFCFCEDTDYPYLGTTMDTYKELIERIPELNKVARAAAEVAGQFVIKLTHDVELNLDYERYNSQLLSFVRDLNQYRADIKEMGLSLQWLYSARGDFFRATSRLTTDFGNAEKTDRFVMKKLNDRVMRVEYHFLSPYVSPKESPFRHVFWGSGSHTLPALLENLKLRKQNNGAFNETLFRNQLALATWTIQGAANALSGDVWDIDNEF
# ASSAY DETAILS: SPR, IgG;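 note: His-tagged TfR captured via immobilized anti-His antibody on a CM5 chip, antibody injected in 3-fold dilution series by single cycle kinetics, 1:1 Langmuir or steady-state fit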
Reported pKd values for a set of binders
// pKd here means minus log10 of the molar concentration (mol/L)

A selection of reference data follows.
hu7A4.v7 (antibody, V domains shown, IgG) VH: EVQLVQSGAEVKKPGASVKVSCKASGYTFTDYAMHWVRQAPGQGLEWMGGISTYFGRTNYNQKFKGRVTMTVDTSISTAYMELSRLRSDDTAVYYCARGLSGNYVMDYWGQGTTVTVSS VL: DIVMTQSPDSLAVSLGERATINCRASESVDSYGNSFMHWYQQKPGQPPKLLIYRASNLESGIPDRFSGSGSGTDFTLTISSLQAEDVAVYYCQQSNEGPPTFGQGTKLEIK: 9.29
hu7A4.v14 (antibody, V domains shown, IgG) VH: EVQLVQSGAEVKKPGASVKVSCKGSGYTFTDYAMHWVRQAPGQGLEWMGGISTYFGRTNYNQKFKGRVTMTVDTSISTAYMELSRLRSDDTAVYYCARGLSGNYVMDYWGQGTTVTVSS VL: DIVMTQSPDSLAVSLGERATINCRASESVDSYGNSFMHWYQQKPGQPPKLLIYRASNLESGIPDRFSGSGSGTDFTLTISSLQAEDVAVYYCQQSNEAPPTFGQGTKLEIK: 8.92
hu7A4.v11 (antibody, V domains shown, IgG) VH: EVQLVQSGAEVKKPGASVKVSCKASGYTFTDYAMHWVRQAPGQGLEWMGGISTYFGRTNYNQKFKGRVTMTVDTSISTAYMELSRLRSDDTAVYYCARGLSGNYVMDYWGQGTTVTVSS VL: DIVMTQSPDSLAVSLGERATINCRASESVDSYGNSFMHWYQQKPGQPPKLLIYRASNLESGVPDRFSGSGSRTDFTLTISSLQAEDVAVYYCQQSNEGPPTFGQGTKLEIK: 9.81
hu7A4.v8 (antibody, V domains shown, IgG) VH: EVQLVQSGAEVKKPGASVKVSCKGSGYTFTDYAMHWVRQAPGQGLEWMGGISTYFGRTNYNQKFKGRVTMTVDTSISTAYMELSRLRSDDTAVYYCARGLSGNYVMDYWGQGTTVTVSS VL: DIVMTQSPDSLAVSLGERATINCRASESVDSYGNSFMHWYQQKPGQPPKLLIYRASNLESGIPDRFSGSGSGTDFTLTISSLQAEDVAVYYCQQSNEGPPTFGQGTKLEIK: 8.89

Now take the following binder into account.
Requested field: pKd. Item: 16F6 (antibody, V domains shown, Mouse hybridoma antibody; also called clone 16F6) VH: DVQLQESGPGLVKPSQSLSLTCTVTGNSITSEYAWNWIRQFPGNKLEWMGYISYSGTTSYNPSLKSRISITRDTSKNQLFLQLNSVTTEDTATYFCARYGYGNPATRYFDVWGAGTTVTVSS VL: DVQITQSPSYLTASPGETITINCRASKSISKYLAWYQEKPGKTNKLLIYSGSTLQSGIPSRFSGSGSGTDFTLTISNLEPEDFAMYYCQQHNEYPWTFGGGTKLEIK
8.68
